Here the recorded kon is given for each entry.
systemTested: soluble FGFR2c receptor protein (human, UniProt P21802 148-377)
Sequence (P21802 148-377): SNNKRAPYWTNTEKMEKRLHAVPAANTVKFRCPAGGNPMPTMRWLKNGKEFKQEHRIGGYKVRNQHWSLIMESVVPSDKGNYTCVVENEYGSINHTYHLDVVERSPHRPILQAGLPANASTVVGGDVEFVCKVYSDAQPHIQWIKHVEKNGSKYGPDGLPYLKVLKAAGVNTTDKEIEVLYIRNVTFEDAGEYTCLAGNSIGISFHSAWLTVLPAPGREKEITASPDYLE
assayNotes: BLI Octet RED96, antibody on anti-hIgG Fc tip

- binder: "Vk7 combined with the VH of Ab15 (antibody, V domains shown, captured on anti-human IgG Fc tips) VH: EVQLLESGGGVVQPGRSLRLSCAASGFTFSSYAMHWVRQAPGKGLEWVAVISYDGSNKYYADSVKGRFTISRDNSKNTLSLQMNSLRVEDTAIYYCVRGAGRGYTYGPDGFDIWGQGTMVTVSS VL: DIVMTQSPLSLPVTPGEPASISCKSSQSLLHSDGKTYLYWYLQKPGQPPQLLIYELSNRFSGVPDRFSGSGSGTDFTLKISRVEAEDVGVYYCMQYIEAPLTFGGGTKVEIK"
  kon (M⁻¹ s⁻¹): 210000
- binder: "Vk12 combined with the VH of Ab15 (antibody, V domains shown, captured on anti-human IgG Fc tips) VH: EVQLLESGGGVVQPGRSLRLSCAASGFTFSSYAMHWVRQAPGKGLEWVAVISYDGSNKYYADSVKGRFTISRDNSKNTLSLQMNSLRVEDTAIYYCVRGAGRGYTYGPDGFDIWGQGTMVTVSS VL: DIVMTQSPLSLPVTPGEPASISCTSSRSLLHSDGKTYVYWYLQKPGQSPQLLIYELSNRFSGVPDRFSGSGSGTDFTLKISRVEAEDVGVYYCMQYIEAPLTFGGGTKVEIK"
  kon (M⁻¹ s⁻¹): 215000
- binder: "Vk5 combined with the VH of Ab15 (antibody, V domains shown, captured on anti-human IgG Fc tips) VH: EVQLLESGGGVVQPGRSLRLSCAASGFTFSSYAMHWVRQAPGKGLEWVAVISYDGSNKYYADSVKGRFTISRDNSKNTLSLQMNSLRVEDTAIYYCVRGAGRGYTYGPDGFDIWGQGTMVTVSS VL: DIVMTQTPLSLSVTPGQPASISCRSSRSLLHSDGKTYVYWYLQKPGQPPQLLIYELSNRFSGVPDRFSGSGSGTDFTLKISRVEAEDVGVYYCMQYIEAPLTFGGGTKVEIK"
  kon (M⁻¹ s⁻¹): 198000
